Value source: paper PMC11204085

Target: R24A mutant of AgifCSP5 (Aphidius gifuensis, UniProt A0A3Q9ELG9, R44A)
Sequence (A0A3Q9ELG9 entry or part of it R44A): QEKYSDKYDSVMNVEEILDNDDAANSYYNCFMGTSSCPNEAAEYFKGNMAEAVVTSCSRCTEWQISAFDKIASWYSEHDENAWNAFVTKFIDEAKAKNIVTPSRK
Assay: Fluorescence competitive binding assay, R24A mutant
Conditions: R24A mutant; read-out: Ki
recorded endpoint: Ki

[[record]]
molecule = "C=C/C(C)=C\\CC=C(C)C [(Z)-β-ocimene]"
tgt = "R24A mutant of AgifCSP5 (Aphidius gifuensis, UniProt A0A3Q9ELG9, R44A)"
recorded_endpoint = "Ki"
experimental_result = "16.7 µM"


###

Target: Y75A mutant of AgifCSP5 (Aphidius gifuensis, UniProt A0A3Q9ELG9, Y95A)
Sequence (A0A3Q9ELG9 entry or part of it Y95A): as the sequence (A0A3Q9ELG9 entry or part of it R44A) above, with A24R, Y75A counted along it
Assay: Fluorescence competitive binding assay, Y75A mutant
Conditions: Y75A mutant; read-out: Ki
recorded endpoint: Ki (µM)

[[record]]
compound = "C=C/C(C)=C\\CC=C(C)C [(Z)-β-ocimene]"
recorded_endpoint = "Ki"
experimental_result = 21.9


###

Molecular target: R24A mutant of AgifCSP5 (Aphidius gifuensis, UniProt A0A3Q9ELG9, R44A)
Assay: Fluorescence competitive binding assay, R24A mutant
Settings: R24A mutant; read-out: IC50
recorded endpoint: IC50 (µM)

[[record]]
compound = "C=C/C(C)=C\\CC=C(C)C [(Z)-β-ocimene]"
tgt = "R24A mutant of AgifCSP5 (Aphidius gifuensis, UniProt A0A3Q9ELG9, R44A)"
recorded_endpoint = "IC50"
experimental_result = 18.2


###

Biological target: UniProtKB A0A3Q9ELG9
Test: Fluorescence competitive binding assay with 1-NPN probe, wild-type AgifCSP5
// values below are reported IC50
recorded endpoint: IC50 (µM)

[[record]]
compound = "CC(=O)OC/C=C(\\C)CCC=C(C)C [Geranyl acetate]"
qual = "="
experimental_result = 27.3

[[record]]
compound = "CC/C=C\\CC=O [cis-3-Hexenal]"
qual = "="
experimental_result = 29.8

[[record]]
compound = "CCC/C=C/C=O [trans-2-Hexen-1-al]"
qual = "="
experimental_result = 18.1

[[record]]
compound = "COC(=O)c1ccccc1O [Methyl salicylate]"
qual = "="
experimental_result = 20.6

[[record]]
compound = "C=C1CCC2(C(C)C)CC12 (stereo not drawn) [Sabinene]"
qual = "="
experimental_result = 16.4

[[record]]
compound = "COc1cc(C(C)=O)cc(OC)c1O [Acetosyringone]"
qual = "="
experimental_result = 36.9

[[record]]
compound = "OCc1ccccc1 [Benzyl alcohol]"
qual = "="
experimental_result = 22.4

[[record]]
compound = "CC1=CC[C@@H]2C[C@H]1C2(C)C [(1R)-(+)-α-Pinene]"
qual = "="
experimental_result = 22.5

[[record]]
compound = "C=CC(=C)CCC=C(C)C [Myrcene]"
qual = "="
experimental_result = 22.5

[[record]]
compound = "CCCCCCCCCCCCC [Tridecane]"
qual = ">"
experimental_result = 40

[[record]]
compound = "C=C(C)[C@@H]1CC=C(C)C(=O)C1 [(R)-(−)-Carvone]"
qual = "="
experimental_result = 23

[[record]]
compound = "CCCCCCCCCCCCCCCCCO [1-Heptadecanol]"
qual = "="
experimental_result = 21.4

[[record]]
compound = "CCCC/C=C\\CCO [cis-3-Octen-1-ol]"
qual = "="
experimental_result = 17

[[record]]
compound = "CCCCCCCCCCCCCCCCCCC [Nonadecane]"
qual = "="
experimental_result = 38.9

[[record]]
compound = "CCC/C=C\\CO [cis-2-Hexen-1-ol]"
qual = "="
experimental_result = 34.5

[[record]]
compound = "CCCCCCCCCCCCCCCCCCCCC [Heneicosane]"
qual = "="
experimental_result = 22.5

[[record]]
compound = "CCCCCCCCCCCCCC=O [Tetradecanal]"
qual = "="
experimental_result = 20.6

[[record]]
compound = "O=Cc1ccccc1 [Benzaldehyde]"
qual = "="
experimental_result = 18.2

[[record]]
compound = "C=CC(C)(O)CCC=C(C)C (stereo not drawn) [Linalool]"
qual = "="
experimental_result = 25.5

[[record]]
compound = "CCCCCC/C=C/C=O [trans-2-Nonenal]"
qual = "="
experimental_result = 16.6

[[record]]
compound = "CC(=O)CCC=C(C)C [6-Methyl-5-hepten-2-one]"
qual = "="
experimental_result = 24.5

[[record]]
compound = "CC/C=C\\CCOC(C)=O [cis-3-Hexenyl acetate]"
qual = "="
experimental_result = 24.5

[[record]]
compound = "CC/C=C\\CC1C(=O)CCC1CC(=O)OC (stereo not drawn) [Methyl jasmonate]"
qual = "="
experimental_result = 20.1

[[record]]
compound = "CC/C=C\\CCO [cis-3-Hexen-1-ol]"
qual = "="
experimental_result = 23.4

